METHOD_NOTES: blockers of RIG-like receptor reporter activation – cell-based, Sendai virus stimulus, luciferase, 10K MLSCN set, TLR/RLR signaling modifier project, primary screen (AID 602276);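 note: firefly luciferase from ISG56 promoter only with Renilla not read in this screen; 0% = Sendai virus plus DMSO and 100% = medium plus DMSO without virus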
PROTOCOL_CONDITIONS: HEK293 RL24 IRF3 luciferase reporter, at 10 µM, stronger effect = higher value
MEASUREMENT_KIND: inhibition (%)

SMILES	MEASUREMENT_KIND	UNITS_OF_MEASURE	REPORTED
O=C(CSc1nnc(-c2ccc(Br)cc2)n1C1CCCCC1)N1CCCC1	inhibition	%	-3.56
CCOCCn1c(CN2CCN(c3cccc(Cl)c3)CC2)nc2c1c(=O)n(C)c(=O)n2C	inhibition	%	1.6
Cn1c(=N)c(S(=O)(=O)c2ccccc2)cc2c(=O)n3ccccc3nc21	inhibition	%	-14.3
O=C(COc1ccc(F)cc1)Nc1ccc(-n2cnnn2)cc1	inhibition	%	8.39
CC1(C)CC(=O)CC(C)(C)N1OC(=O)c1ccccn1	inhibition	%	-2.81
COc1ccc(C(=O)N2CCOCC2)cc1Br	inhibition	%	-0.192
CCOc1ccccc1N(CC(=O)N1CCCCCC1)S(C)(=O)=O	inhibition	%	9.48

* * *

METHOD_NOTES: blockers of RIG-like receptor reporter activation – cell-based, Sendai virus stimulus, luciferase, 10K MLSCN set, TLR/RLR signaling modifier project, primary screen (AID 602276);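 note: firefly luciferase from ISG56 promoter only with Renilla not read in this screen; 0% = Sendai virus plus DMSO and 100% = medium plus DMSO without virus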
PROTOCOL_CONDITIONS: HEK293 RL24 IRF3 luciferase reporter, at 10 µM, stronger effect = higher value
This listing pairs compounds with measured inhibition.
MEASUREMENT_KIND: inhibition (%)

COMPOUND	MEASUREMENT_KIND	REPORTED
COc1ccc(C2CC(c3ccc(C)cc3)Nc3ncnn32)cc1 (stereo unspecified)	inhibition	7.28
CCOC(=O)N1CCN(C(=O)c2ccc(CS(=O)(=O)c3ccc(OC)cc3)o2)CC1	inhibition	14.8
Cc1nc(C)c2c(c1C(F)(F)F)-c1ccccc1C2(F)F	inhibition	-9.52
COc1cc(SC)ccc1C(=O)Nc1ccccc1C#N	inhibition	-42.4
Clc1ccc(OCc2nnc(SCCN3CCCCC3)n2Cc2ccco2)cc1	inhibition	8.16
CS(=O)(=O)c1ccc2nc(NC(=O)CCC(=O)c3cccs3)sc2c1	inhibition	14.5
N#Cc1c(NC(=O)CSc2nnnn2C2CCCC2)sc2c1CCCC2	inhibition	11
Cc1sc2ncnc(Oc3ccc(-n4ccnc4)cc3)c2c1C	inhibition	-6.33
CCC(=O)Nc1cc(C)c(NC(=O)C23CC4CC(CC(C4)C2)C3)cn1	inhibition	1.14
CCOC(=O)c1ccccc1NC1CC(=O)N(c2ccccc2C)C1=O (stereo unspecified)	inhibition	-4.41
CN(C)/C=C(\C#N)c1nc2ccccc2[nH]1	inhibition	-21.4
CC(=O)N1C(=O)C2(Nc3ccccc3N2)c2ccccc21	inhibition	-8.46
CC(C)c1cc(C(=O)Nc2cccnc2)no1	inhibition	-22.1
CC1CCN(S(=O)(=O)c2ccc(Br)s2)CC1	inhibition	8.6
c1ccc(-c2nc3ccccc3nc2-c2ccccn2)nc1	inhibition	11.1
CCOc1ccc(NS(=O)(=O)c2cc(Cl)ccc2OC)cc1	inhibition	14.5
N#Cc1c(N2CCCC2)nc(N)c2c(N)nc(N3CCCC3)cc12	inhibition	-6.36
CCOC(=O)C1C(=O)NC(SCC(=O)Nc2nccs2)=C(C#N)C1c1ccccc1OCC (stereo unspecified)	inhibition	19.6
C/C(=C\C(=O)c1ccc(F)cc1)Nc1ccc(N2CCOCC2)cc1	inhibition	-13.9
CCOc1ccc(N(CC(=O)NC2CCCC(C)C2C)S(=O)(=O)c2c(C)noc2C)cc1 (stereo unspecified)	inhibition	1.67
OCCNCC(O)Cn1ccc2ccccc21 (stereo unspecified)	inhibition	12.3
COc1ccc(C)cc1S(=O)(=O)N(C)CC(=O)Nc1ccc2c(c1)OCCO2	inhibition	-4.31
CNC(=O)OC(C)CNS(=O)(=O)c1ccc(C)cc1 (stereo unspecified)	inhibition	19.5
Cc1ccc2oc(=O)c3cnn(CC(=O)N4CCCCC4C)c3c2c1 (stereo unspecified)	inhibition	3.36
Cc1ccccc1NC(=O)CSc1nnc(Cc2cccn2C)n1-c1ccc(F)cc1	inhibition	-3.98
CC(C)[C@H](NC(=O)[C@@H]1CSCN1C(=O)OC(C)(C)C)C(=O)NCC1CCC(C(=O)O)CC1 (stereo partly specified)	inhibition	25.1
Cc1nnc(SC(=O)N2c3ccccc3Sc3ccccc32)s1	inhibition	5.05
CC(C)NC(=O)Nc1cccs1	inhibition	11.4
CCN(CC(=O)Nc1ccc2c(c1)OCCO2)Cc1cc(=O)oc2cc(C)c(C)cc12	inhibition	25.7
COc1cc(C(=O)Nc2cc(-c3ccccc3)[nH]n2)cc(OC)c1OC	inhibition	22.1
CC(=O)c1cc2c(cc1NC(=O)CN1CCN(C(=O)c3ccco3)CC1)OCO2	inhibition	4.38

Reference source: PubChem BioAssay
